# System: 186277-243-T-J2-PDC spheroids with HUVEC/MSC, viability
# ASSAY SUMMARY: Anticancer human tumor 186277-243-T-J2-PDC patient-derived colon adenocarcinoma cell line growth inhibition [CLK]; active = viability on the fitted dose curve at most 10% of control; inactive = the rest
# REPORTED CONDITIONS: second compound 3.16 µM; first compound 3.16 µM
Output constraint: value belongs to active, inactive

COC1C=CCC(C)C(C)S(=O)(=O)NC(=O)c2ccc3c(c2)N(CC2CCC21)CC1(CCCc2cc(Cl)ccc21)CO3 (stereo not given) + CN1CCN(c2cc(C(=O)Nc3cc4cc(-c5cnn(C)c5)ccc4cn3)ccn2)CC1 :: active
C#Cc1c(F)ccc2cc(O)cc(-c3ncc4c(N5CC6CCC(C5)N6)nc(OCC56CCCN5CC(F)C6)nc4c3F)c12 (stereo not given) + CNC(=O)c1ccc(Nc2nc(OC3CCCC3)c3c(-c4ccc5nc(C)oc5c4)c[nH]c3n2)c(OC)c1 :: active
COc1cccc2c1C(=O)c1c(O)c3c(c(O)c1C2=O)CC(O)(C(=O)CO)CC3OC1CC(N)C(O)C(C)O1 (stereo not given) + CNC(=O)c1ccc(Nc2nc(OC3CCCC3)c3c(-c4ccc5nc(C)oc5c4)c[nH]c3n2)c(OC)c1 :: active
CCCS(=O)(=O)Nc1ccc(F)c(C(=O)c2c[nH]c3ncc(-c4ccc(Cl)cc4)cc23)c1F + CNC(=O)c1ccc(Nc2nc(OC3CCCC3)c3c(-c4ccc5nc(C)oc5c4)c[nH]c3n2)c(OC)c1 :: inactive

In the following, a different compound is considered.
Data request: Please let me know the test result on file for Nc1ccn(C2OC(CO)C(O)C2(F)F)c(=O)n1 (stereo not given) + CN1CCN(c2cc(C(=O)Nc3cc4cc(-c5cnn(C)c5)ccc4cn3)ccn2)CC1 .
Data returned: active

###

# System: 186277-243-T-J2-PDC spheroids with HUVEC/MSC, viability
# ASSAY SUMMARY: Anticancer human tumor 186277-243-T-J2-PDC cell line growth inhibition [CLK]; active means viability on the fitted dose curve at most 10% of control; inactive means the rest;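 also: compound exposure lasted seven days before readout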
# REPORTED CONDITIONS: second compound 3.16 µM; first compound 0.1 µM
Output constraint: value belongs to 1 = active, 0 = inactive

Below, 2 molecules whose answers are already recorded.
Cn1ncnc1[C@H]1c2n[nH]c(=O)c3cc(F)cc(c23)N[C@@H]1c1ccc(F)cc1 + CNC(=O)c1ccc(Nc2nc(OC3CCCC3)c3c(-c4ccc5nc(C)oc5c4)c[nH]c3n2)c(OC)c1 :: 0
O=c1[nH]cc(F)c(=O)[nH]1 + CN1CCN(c2cc(C(=O)Nc3cc4cc(-c5cnn(C)c5)ccc4cn3)ccn2)CC1 :: 1

In the following, a different molecule is considered.
Data request: Please let me know the test result on file for CCc1c2c(nc3ccc(O)cc13)-c1cc3c(c(=O)n1C2)COC(=O)[C@]3(O)CC + CN1CCN(c2cc(C(=O)Nc3cc4cc(-c5cnn(C)c5)ccc4cn3)ccn2)CC1 .
Data returned: 1

###

// reported IC50 per item
# System: 186277-243-T-J2-PDC spheroids with HUVEC/MSC, viability
# ASSAY SUMMARY: Anticancer human tumor 186277-243-T-J2-PDC cell line growth inhibition [CLK];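 also: compound exposure lasted seven days before readout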
# REPORTED CONDITIONS: curve of first compound; second compound 0.316 µM

Below: 4 compounds and their reported IC50.
Nc1ccn(C2OC(CO)C(O)C2(F)F)c(=O)n1 (stereo not given) + CNC(=O)c1ccc(Nc2nc(OC3CCCC3)c3c(-c4ccc5nc(C)oc5c4)c[nH]c3n2)c(OC)c1 :: < 0.0316 µM
C=CC(=O)Nc1cc(Nc2nccc(-c3cn(C)c4ccccc34)n2)c(OC)cc1N(C)CCN(C)C + CN1CCN(c2cc(C(=O)Nc3cc4cc(-c5cnn(C)c5)ccc4cn3)ccn2)CC1 :: < 0.000949 µM
C=CC(=O)N1CCN(c2nc(=O)n(-c3c(C)ccnc3C(C)C)c3nc(-c4c(O)cccc4F)c(F)cc23)C(C)C1 (stereo not given) + CN1CCN(c2cc(C(=O)Nc3cc4cc(-c5cnn(C)c5)ccc4cn3)ccn2)CC1 :: < 0.0316 µM
O=C(c1cc(Cc2n[nH]c(=O)c3ccccc23)ccc1F)N1CCN(C(=O)C2CC2)CC1 + CNC(=O)c1ccc(Nc2nc(OC3CCCC3)c3c(-c4ccc5nc(C)oc5c4)c[nH]c3n2)c(OC)c1 :: > 10 µM

For the next question, use this compound.
Data request: What does the data say about its IC50? Entry: CCc1c2c(nc3ccc(O)cc13)-c1cc3c(c(=O)n1C2)COC(=O)[C@]3(O)CC + CN1CCN(c2cc(C(=O)Nc3cc4cc(-c5cnn(C)c5)ccc4cn3)ccn2)CC1
Data returned: < 0.00316 µM

FYI, the data here is from PubChem BioAssay AID2060625.
